B1: ZNF232 (parent)
chain: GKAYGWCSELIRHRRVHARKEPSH

- Variants of: B1
- protocolDescription: protein stability index of a GFP-peptide fusion (GPS, HEK-293T) (PSI 1-6); higher = more stable;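 also: lentivirally expressed fusions sorted by FACS into six bins by GFP to DsRed ratio, PSI derived from sequencing read proportions per bin multiplied by bin number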
- experimentalContext: c terminus: a fixed tail appended
variants and their reported protein stability index
# output: bare number, no unit

Worked cases, answers included:
>  <variantDescriptor>
S23Y

>  <endpointLabel>
protein stability index

>  <valueMeasured>
2.19

$$$$
>  <variantDescriptor>
G1R

>  <endpointLabel>
protein stability index

>  <valueMeasured>
2.87

$$$$
>  <variantDescriptor>
E21A

>  <endpointLabel>
protein stability index

>  <valueMeasured>
2.92

$$$$
>  <variantDescriptor>
R19A

>  <endpointLabel>
protein stability index

>  <valueMeasured>
2.54

$$$$
>  <variantDescriptor>
E21D

>  <endpointLabel>
protein stability index

>  <valueMeasured>
2.75

$$$$
>  <variantDescriptor>
H13A

>  <endpointLabel>
protein stability index

>  <valueMeasured>
2.62

$$$$
>  <variantDescriptor>
I11Y

>  <endpointLabel>
protein stability index

>  <valueMeasured>
2.9

$$$$
>  <variantDescriptor>
W6T

>  <endpointLabel>
protein stability index

>  <valueMeasured>
3.69

$$$$

Continue with the next variant.
## Task Write down protein stability index measured for item A3S
## Result 3.46
